This collection of values is drawn from ChEMBL document CHEMBL1148152.

tested on: Plasmodium falciparum; assay: Antiplasmodial activity against Plasmodium falciparum D6; assay type: functional, organism-based
Catalogue of molecules with associated pIC50
// pIC50: -log10(molar conc.)

COc1ccc([C@@H](CNC(=O)/C=C/c2ccccc2)OC(=O)/C=C/c2ccccc2)cc1OC [SYNCARPAMIDE] :: 5.69

Now, please, on to the next molecule.
Consider COc1c(O)ccc2c1cnc1c3cc4c(cc3ccc21)OCO4 [DECARINE] . Its measured pIC50 is 5.84
